Listed binders paired with reported Kd
Molecular target: T1, EsCas13d, nuclease-dead (Eubacterium siraeum, UniProt B0MS50, R295A;H300A;R849A;H854A)
T1 sequence: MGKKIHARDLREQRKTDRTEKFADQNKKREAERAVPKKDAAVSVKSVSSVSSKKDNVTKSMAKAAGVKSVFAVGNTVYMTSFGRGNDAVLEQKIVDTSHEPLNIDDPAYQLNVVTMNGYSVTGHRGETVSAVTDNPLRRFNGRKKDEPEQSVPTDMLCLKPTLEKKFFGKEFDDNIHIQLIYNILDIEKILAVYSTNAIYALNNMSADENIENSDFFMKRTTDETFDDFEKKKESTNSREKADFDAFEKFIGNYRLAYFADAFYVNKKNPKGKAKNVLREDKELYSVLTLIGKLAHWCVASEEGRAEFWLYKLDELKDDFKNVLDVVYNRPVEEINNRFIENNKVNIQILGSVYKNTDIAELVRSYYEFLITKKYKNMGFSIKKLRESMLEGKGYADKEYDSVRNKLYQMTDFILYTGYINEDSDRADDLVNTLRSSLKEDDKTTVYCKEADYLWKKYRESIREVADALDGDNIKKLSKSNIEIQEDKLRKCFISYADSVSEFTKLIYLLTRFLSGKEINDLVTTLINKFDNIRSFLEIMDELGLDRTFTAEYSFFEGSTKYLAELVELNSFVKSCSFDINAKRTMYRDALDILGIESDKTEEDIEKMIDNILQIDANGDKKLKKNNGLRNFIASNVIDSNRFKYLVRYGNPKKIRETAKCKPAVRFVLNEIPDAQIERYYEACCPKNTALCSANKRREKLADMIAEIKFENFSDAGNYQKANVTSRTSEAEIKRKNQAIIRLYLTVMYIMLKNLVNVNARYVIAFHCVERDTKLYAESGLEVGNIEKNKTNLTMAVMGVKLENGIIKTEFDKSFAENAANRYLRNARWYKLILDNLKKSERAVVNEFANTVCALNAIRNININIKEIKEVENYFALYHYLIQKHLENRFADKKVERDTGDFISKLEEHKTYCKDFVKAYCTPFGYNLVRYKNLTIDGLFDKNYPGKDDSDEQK
Experiment: crRNA (strand 1, pre-loaded); Mg2+; 40 mM Tris-HCl pH 7.5, 150 mM NaCl, 6 mM MgCl2, 1 mM DTT, 0.1% Tween-20, 0.2 mg/ml BSA; 25 C; 10 min per concentration, then washed
Details: tags: His6-TwinStrep-SUMO cleaved; N-terminal SNAP kept (SNAP-Surface 488); label: 3' end held by stalled T7 RNA polymerase

Binder	Kd
target 1 del13,del15 (mixed) RNA 1: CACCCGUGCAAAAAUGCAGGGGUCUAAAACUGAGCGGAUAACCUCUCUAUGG RNA 2: GGGAAUGGAUCCACAUCUACGAAUUCGUACCAUAGAAGUUAUCCGCUCACCGAGAUCGGAAGAGCACACGU	30 nM
target 2 MT 5'PFS ACC 3'PFS CAA (mixed) RNA 1: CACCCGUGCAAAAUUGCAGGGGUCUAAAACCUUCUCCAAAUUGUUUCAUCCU RNA 2: GGGAAUGGAUCCACAUCUACGAAUUCACCAGGAUGAAACAAUUUGGAGAAGCAAAGAUCGGAAGAGCACACGU	~4.3 nM
target 1 U8G,C22G (mixed) RNA 1: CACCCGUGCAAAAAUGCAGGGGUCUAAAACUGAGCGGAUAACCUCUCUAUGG RNA 2: GGGAAUGGAUCCACAUCUACGAAUUCGUAGCAUAGAGAGGUUAGCCGCUCACCGAGAUCGGAAGAGCACACGU	43 nM
target 2 MT 5'PFS GGA 3'PFS AAA (mixed) RNA 1: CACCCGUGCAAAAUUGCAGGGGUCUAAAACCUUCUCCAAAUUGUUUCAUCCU RNA 2: GGGAAUGGAUCCACAUCUACGAAUUCGGAAGGAUGAAACAAUUUGGAGAAGAAAAGAUCGGAAGAGCACACGU	8.6 nM
